# tested.on: Gonadotropin-releasing hormone receptor (Homo sapiens)
# measurement.protocol: Human gonadotropin-releasing hormone receptor (GnRHR) small molecule agonists, calcium flux assay in GnRHR-HEK293 cells (AID 1920063); note: nearly all actives have a fitted effect of over 35% in size
# measurement.setup: calcium flux fluorescence, agonist mode; series mostly up to 57.6 µM
# From the text: National Center for Advancing Translational Sciences [NCATS] Division of Preclinical Innovation [DPI] U.S. Environmental Protection Agency [EPA] National Institutes of Environmental Health Sciences [NIEHS] National Toxicology Program [NTP] U.S. Food and Drug Administration [FDA] […] GnRHR-HEK293 cells developed by Codex Corp contain human GnRHR reporter gene, which was stably integrated into HEK 293 cells. The compound activation can be detected by fluorescence intensity via calcium flux assay. […]
Active and inactive are the calls of the source. Calls come from the whole dose curve.
recorded.metric: outcome

# count of solved cases: 10
CCCCCCCCCCCC(=O)O | inactive
NC(=S)c1c(Cl)cccc1Cl | inactive
OCC(O)CCl (centres undefined) | inactive
C[N+](=O)[O-] | inactive
C=CCN1C[C@H](C)N([C@H](c2ccc(C(=O)N(CC)CC)cc2)c2cccc(OC)c2)C[C@H]1C | inactive
CC(=[OH+])/C=C(/C)[O-].CC(=[OH+])/C=C(\C)[O-].CC(=[OH+])/C=C(\C)[O-].[Fe] | inactive
CCCCCCC#N | inactive
O=C/C=C/c1ccco1 | inactive
CCNc1nc(NCC)nc(SC)n1 | inactive
Cc1cccc(C)c1NC(=O)CN1CCCC1=O | inactive

Input O=S(=O)(Oc1ccc(Cl)cc1)c1ccc(Cl)cc1 , output reported outcome.
inactive

Input O=[N+]([O-])/N=C1\NCCN1Cc1ccc(Cl)nc1 , output reported outcome.
inactive

###

# measurement.protocol: cAMP Responsive Elements (CRE) small molecule agonists, cell-based qHTS assay (AID 1963590)
# measurement.setup: CRE-bla HEK293T, beta-lactamase FRET ratio, 3 h; series mostly up to 92.4 µM
Inconclusive results are not listed. Activity calls are given as the source filed them. Calls come from the whole dose curve.
recorded.metric: activation

# count of solved cases: 6
O=[N+]([O-])c1ccccc1O | inactive
CCCOC(=O)c1cncn1C(C)c1ccccc1 (centres undefined) | inactive
CNC | inactive
N#CS | inactive
C1CCC2CCCCC2C1 (centres undefined) | inactive
CN(C)C(=O)Nc1ccc(Cl)cc1 | inactive

Input CCOC(=S)S , output reported activation.
inactive

Input Nc1ccc([N+](=O)[O-])cc1N , output reported activation.
inactive

Input Cl , output reported activation.
inactive

###

# tested.on: Gonadotropin-releasing hormone receptor (Homo sapiens) (UniProt P30968)
# Sequence (P30968 whole entry, looked up): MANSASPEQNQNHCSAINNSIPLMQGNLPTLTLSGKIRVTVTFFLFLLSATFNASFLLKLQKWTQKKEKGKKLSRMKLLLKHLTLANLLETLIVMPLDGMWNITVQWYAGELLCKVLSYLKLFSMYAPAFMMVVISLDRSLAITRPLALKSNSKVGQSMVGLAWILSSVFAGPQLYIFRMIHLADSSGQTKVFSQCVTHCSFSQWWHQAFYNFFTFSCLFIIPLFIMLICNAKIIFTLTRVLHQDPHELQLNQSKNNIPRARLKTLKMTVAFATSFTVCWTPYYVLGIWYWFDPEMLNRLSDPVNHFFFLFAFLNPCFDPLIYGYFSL
# measurement.protocol: Human gonadotropin-releasing hormone receptor (GnRHR) small molecule agonists, calcium flux assay in GnRHR-HEK293 cells (AID 1920063); note: nearly all actives have a fitted effect of over 35% in size
# measurement.setup: calcium flux fluorescence, agonist mode; series mostly up to 57.6 µM
Active and inactive are the calls of the source. Calls come from the whole dose curve.
Mark one answer only. Choices: T = active, F = inactive

Hey, what did the test say about Oc1ccc(Cl)cc1Cl ?
F

Hey, what did the test say about O=C1C(Cl)=C(Cl)C(=O)c2ccccc21 ?
T

Hey, what did the test say about CCCCSP(=O)(SCCCC)SCCCC ?
F

Hey, what did the test say about CCCCc1c(C)nc(NCC)[nH]c1=O ?
F

Hey, what did the test say about C[N+](C)(C)C ?
F

Hey, what did the test say about CCCCCCC1CCOC1=O (stereo unspecified) ?
F

Hey, what did the test say about CCCC[N+]1(C)CCCC1 ?
F

Hey, what did the test say about Nc1ccc([As](=O)(O)O)cc1 ?
F

Hey, what did the test say about [O-][Cl+]O ?
F

Hey, what did the test say about Clc1ccc(C2(Cn3cncn3)OCCO2)c(Cl)c1 ?
F

Hey, what did the test say about C[C@]12CCC(=O)C=C1CC[C@@H]1[C@@H]2CC[C@@]2(C)[C@H]1CC[C@]2(C)O ?
F

Hey, what did the test say about ClC1=C(Cl)C2(Cl)C3C(Cl)C(Cl)CC3C1(Cl)C2(Cl)Cl (stereo unspecified) ?
F

Hey, what did the test say about Cc1cccc(N)c1 ?
F

Hey, what did the test say about COCC(=O)N(c1c(C)cccc1C)[C@H](C)C(=O)OC ?
F

Hey, what did the test say about O=S(=O)(O)C(F)(F)C(F)(F)C(F)(F)C(F)(F)C(F)(F)C(F)(F)C(F)(F)C(F)(F)F ?
F

Hey, what did the test say about O=[N+]([O-])/C=C/c1ccccc1 ?
F

Hey, what did the test say about Oc1ccccc1Cl ?
F

Hey, what did the test say about O=C(O)c1nn(Cc2ccc(Cl)cc2Cl)c2ccccc12 ?
F

Hey, what did the test say about O=[N+]([O-])c1cc(Cl)ccc1Cl ?
F

Hey, what did the test say about C=CC(=O)OC(C)(C)C ?
F

Hey, what did the test say about Nc1cccc(Cl)c1 ?
F

Hey, what did the test say about C[N+](C)(C)CC(=O)[O-] ?
F

Hey, what did the test say about O=[N+]([O-])c1ccccc1O ?
F

Hey, what did the test say about O=NN(c1ccccc1)c1ccccc1 ?
F

Hey, what did the test say about c1ccc(NNc2ccccc2)cc1 ?
F

Hey, what did the test say about CN(C)c1ccc(N=O)cc1 ?
F

Hey, what did the test say about COP(=S)(OC)Oc1ccc(Sc2ccc(OP(=S)(OC)OC)cc2)cc1 ?
F

Hey, what did the test say about CCN(CCO)CCO ?
F

Hey, what did the test say about CC(C)OC(=S)S ?
F

Hey, what did the test say about CCSC(=O)N1CCCCCC1 ?
F

Hey, what did the test say about Brc1ccc(Br)cc1 ?
F

Where do the numbers come from? From PubChem BioAssay (Tox21).
